Assay: Selectivity index, ratio of IC50 for cytotoxicity against human PANC-1 cells in nutrient-rich Dulbecco's modified Eagle's medium to PC50 for preferential cytotoxicity against human PANC-1 cells in nutrient-deprived medium
Assay type: toxicity, cell-based
Parameter Measured: selectivity ratio

Per the records, this compound ( O=C(CCCCCCCCc1ccc(F)cc1)N1CCCCC1 ) has selectivity ratio equal to 28.5

Per the records, this compound ( O=C(/C=C/CCCCCCc1ccccc1)N1CCCCC1 ) has selectivity ratio equal to > 58.8

Per the records, this compound ( O=C(/C=C/CCCCCCc1ccccc1)N[C@H]1CC[C@H](O)CC1 ) has selectivity ratio equal to > 1.9

Per the records, this compound ( N#Cc1ccc(CCCCCCCCC(=O)N2CCCCC2)cc1 ) has selectivity ratio equal to > 25

Per the records, this compound ( O=C(CCCCCCc1ccccc1)N1CCCCC1 ) has selectivity ratio equal to > 14.1

Per the records, this compound ( O=C(CCCCCCCCc1ccccc1F)N1CCCCC1 ) has selectivity ratio equal to 21.5

Per the records, this compound ( O=C(CCCCCCCc1ccccc1)N1CCCCC1 ) has selectivity ratio equal to > 14.5

Per the records, this compound ( O=C(/C=C/CCCCC#Cc1ccccc1)N1CCCCC1 ) has selectivity ratio equal to > 45.5

Per the records, this compound ( O=C(CCCCCC/C=C/c1ccccc1)N1CCCCC1 ) has selectivity ratio equal to 7.4

Per the records, this compound ( O=C(/C=C\CCCCCCc1ccccc1)N1CCCCC1 ) has selectivity ratio equal to > 43.5

Per the records, this compound ( O=C(CCCCCCCCC1CCCCC1)N1CCCCC1 ) has selectivity ratio equal to > 8.3

Per the records, this compound ( O=C(CCCCCCCCc1ccccc1)N1CCCCC1 ) has selectivity ratio equal to > 90.9

Per the records, this compound ( O=C(CCCCCCCCc1ccc(O)cc1)N1CCCCC1 ) has selectivity ratio equal to > 12.8

Taken from ChEMBL document CHEMBL5236566.
